# Tested on: anaphylactic release of histamine, guinea-pig lung sections
# METHOD_NOTES: inhibition of the anaphylactic release of histamine (proper effect)
# Format: cell-based, Dunkin-Hartley guinea-pigs
# CONDITIONS: Cavia porcellus, in vitro, read-out: Minimum inhibitory dose (MID)
Cut-off 1 µM on minimal effective concentration, inclusive. At or above means t; below means f.

{"COMPOUND": "CC1(c2nc(NC3CC3)nc(N3CCOCC3)n2)CC1", "LABEL_VALUE": "f"}
{"COMPOUND": "CCCc1nc(NC2CC2)nc(N2CCOCC2)n1", "LABEL_VALUE": "f"}
{"COMPOUND": "O=C1CN(c2nc(NC3CC3)nc(C3CC3)n2)C1", "LABEL_VALUE": "t"}
{"COMPOUND": "Cn1c(=O)c2[nH]cnc2n(C)c1=O [theophylline, reference compound]", "LABEL_VALUE": "t"}
{"COMPOUND": "C1CN(c2nc(NC3CC3)nc(C3CC3)n2)CCS1", "LABEL_VALUE": "f"}
{"COMPOUND": "OCCN(CCO)c1nc(NC2CC2)nc(C2CC2)n1", "LABEL_VALUE": "f"}
{"COMPOUND": "CCCc1nc(NC2CC2)nc(N2CC(O)C2)n1", "LABEL_VALUE": "t"}
{"COMPOUND": "CCc1nc(NC2CC2)nc(N2CC3CCC(C2)O3)n1", "LABEL_VALUE": "t"}

----------
# Tested on: plantar edema induced by immune complexes
# METHOD_NOTES: "reverse passive Arthus" (RPA) test, anti-inflammatory and anti-edema activity
# Format: in vivo, Sprague-Dawley rat
# CONDITIONS: Rattus norvegicus; intravenous; 5 hours after induction of the Arthus reaction; read-out: Dose (ID30), 5 hours
VALUE_KIND: ED30 (µmol/kg)

{"COMPOUND": "C1CN(c2nc(NC3CC3)nc(C3CC3)n2)CCO1.Cl [Compound 3, hydrochloride]", "VALUE_KIND": "ED30", "RECORDED_MEASUREMENT": 0.4}
{"COMPOUND": "CCCc1nc(NC2CC2)nc(N2CC(O)C2)n1", "VALUE_KIND": "ED30", "RECORDED_MEASUREMENT": 4}
{"COMPOUND": "C1CCC(c2nc(NC3CC3)nc(N3CCOCC3)n2)C1", "VALUE_KIND": "ED30", "RECORDED_MEASUREMENT": 4}
{"COMPOUND": "O=C1CN(c2nc(NC3CC3)nc(C3CC3)n2)C1", "VALUE_KIND": "ED30", "RECORDED_MEASUREMENT": 1}
{"COMPOUND": "C1CC1Nc1nc(C2CC2)nc(N2CC3CCC(C2)O3)n1", "VALUE_KIND": "ED30", "RECORDED_MEASUREMENT": 2}
{"COMPOUND": "[O-][S+]1CCN(c2nc(NC3CC3)nc(C3CC3)n2)CC1", "VALUE_KIND": "ED30", "RECORDED_MEASUREMENT": 0.02}
{"COMPOUND": "CCCc1nc(NC2CC2)nc(N2CCOCC2)n1", "VALUE_KIND": "ED30", "RECORDED_MEASUREMENT": 2}
{"COMPOUND": "CCCc1nc(NC2CC2)nc(N(CCO)CCO)n1", "VALUE_KIND": "ED30", "RECORDED_MEASUREMENT": 9}
{"COMPOUND": "OCCN(CCO)c1nc(NC2CC2)nc(C2CC2)n1", "VALUE_KIND": "ED30", "RECORDED_MEASUREMENT": 11}
{"COMPOUND": "CCCc1nc(NC2CC2)nc(N2CCC(O)CC2)n1", "VALUE_KIND": "ED30", "RECORDED_MEASUREMENT": 27}
{"COMPOUND": "Cn1c(=O)c2[nH]cnc2n(C)c1=O [theophylline, reference compound]", "VALUE_KIND": "ED30", "RECORDED_MEASUREMENT": 10}
{"COMPOUND": "CC(C)c1nc(NC2CC2)nc(N2CC3CCC(C2)O3)n1", "VALUE_KIND": "ED30", "RECORDED_MEASUREMENT": 3}
{"COMPOUND": "O=S1(=O)CCN(c2nc(NC3CC3)nc(C3CC3)n2)CC1", "VALUE_KIND": "ED30", "RECORDED_MEASUREMENT": 0.5}
